Task for the reader: assign each of the following compounds its reported MS_h_% (remaining amount of compound after reaction, 0 minute = 100%).
PROTOCOL TEXT: Metabolic stability test in pooled human liver microsomes
Format: in vitro ADME
RUN CONDITIONS: human liver microsomes 0.5 mg protein/mL, 1 mmol/L NADPH, 37° C., 30 minutes
One number for each entry, in %.

{"columns": ["TEST SMILES", "UNIT ABBREV", "RECORDED VALUE"],
 "data": [
  ["CCc1nc2ccc(Cl)cn2c1C(=O)NCc1ccc(-c2ccc(OC(F)(F)F)cc2)c(F)c1", "%", 89.5],
  ["CCc1nc2cc(F)ccn2c1C(=O)NCc1ccc(N2CCN(c3cc(F)c(OC(F)(F)F)c(F)c3)[C@@H](C)C2)c(F)c1.Cl", "%", 63]
]}

### Prompt MS_h_% (remaining amount of compound after reaction, 0 minute = 100%) for Cc1ccn2nc(C)c(C(=O)NCc3ccc(N4CCN(c5ccc(OC(F)(F)F)cc5)[C@H](C)C4)c(F)c3)c2c1.Cl ?
### Response 78

====

Task for the reader: assign each of the following compounds its reported MS_h_% (remaining amount of compound after reaction, 0 minute = 100%).
PROTOCOL TEXT: Metabolic stability test in pooled human liver microsomes
Format: in vitro ADME
RUN CONDITIONS: human liver microsomes 0.5 mg protein/mL, 1 mmol/L NADPH, 37° C., 30 minutes
One number for each entry, in %.

Recorded MS_h_% (remaining amount of compound after reaction, 0 minute = 100%), per entry:
{"columns": ["TEST SMILES", "UNIT ABBREV", "RECORDED VALUE"],
 "data": [
  ["CCc1nc2cc(Cl)ccn2c1C(=O)NCc1ccc(N2CCN(c3ccc(OC(F)(F)F)cc3)[C@H](C)C2)c(F)c1.Cl", "%", 85],
  ["Cc1cn2c(C(=O)NCc3ccc(N4CCN(c5ccc(OC(F)(F)F)cc5)[C@@H](C)C4)c(Cl)c3)c(C)nc2s1.Cl", "%", 75.1],
  ["CCc1nc2ccc(Cl)cn2c1C(=O)NCc1ccc(N2CCN(c3ccc(OCC4CC4)cc3)[C@@H](C)C2)c(F)c1.Cl", "%", 79],
  ["CCc1nc2ccc(Cl)cn2c1C(=O)NCc1ccc(C2CCN(c3ccc(C(C)(C)C)cc3)CC2)cc1F.Cl", "%", 67]
]}

Dear colleague, could you send me MS_h_% (remaining amount of compound after reaction, 0 minute = 100%) for each of the items below? Thanks.
1. CCc1nc2cc(F)ccn2c1C(=O)NCc1ccc(N2CCN(c3ccc(OC(F)(F)F)cc3)[C@@H](C)C2)c(Cl)c1.Cl
2. CCc1nc2cc(F)ccn2c1C(=O)NCc1ccc(C2CCN(c3ccc(C(C)(C)C)cc3)CC2)cc1F.Cl

### Response
1: 93; 2: 63

====

PROTOCOL TEXT: Metabolic stability test in pooled human liver microsomes
Type: in vitro ADME
RUN CONDITIONS: human liver microsomes 0.5 mg protein/mL, 1 mmol/L NADPH, 37° C., 30 minutes
Note to self: MS_h_% (remaining amount of compound after reaction, 0 minute = 100%) under 80% means met, ties and anything higher get not met.

Solved entries:
{"columns": ["TEST SMILES", "LABEL VALUE"],
 "data": [
  ["Cc1nc2ccc(Br)cn2c1C(=O)NCc1ccc(N2CCN(c3ccc(OC(F)(F)F)cc3)[C@@H](C)C2)c(F)c1", "met"],
  ["C[C@H]1CN(c2ccc(CNC(=O)c3c(Cl)nc4ccccn34)cc2F)CCN1c1ccc(OC(F)(F)F)cc1.Cl", "not met"],
  ["Cc1ccn2c(C(=O)NCc3ccc(N4CCN(c5ccc(OC(F)(F)F)cc5)[C@H](C)C4)c(F)c3)c(C)nc2c1", "met"],
  ["CCOc1ccc(N2CCC(c3ccc(CNC(=O)c4c(CC)nc5ccc(Cl)cn45)c(F)c3)CC2)cc1.Cl", "met"]
]}

Could you now consider this next compound?
### Prompt Input Cc1nc2ccc(F)cn2c1C(=O)NCc1ccc(C2CCN(c3ccc(OC(F)(F)F)cc3)CC2)c(F)c1 ; condition: MS_h_% (remaining amount of compound after reaction, 0 minute = 100%) strictly below 80%. Does it hold?
### Response not met

====

PROTOCOL TEXT: Metabolic stability test in pooled human liver microsomes
Assay type: in vitro ADME
RUN CONDITIONS: human liver microsomes 0.5 mg protein/mL, 1 mmol/L NADPH, 37° C., 30 minutes
OBSERVED PROPERTY: MS_h_% (remaining amount of compound after reaction, 0 minute = 100%)
Answers are plain numbers, in %.

Recorded MS_h_% (remaining amount of compound after reaction, 0 minute = 100%), per entry:
{"columns": ["TEST SMILES", "RECORDED VALUE"],
 "data": [
  ["Cc1nn2cc(F)ccc2c1C(=O)NCc1ccc(N2CCN(c3ccc(OC(F)(F)F)cc3)[C@@H](C)C2)c(F)c1.Cl", 77],
  ["Cc1ccn2c(C(=O)NCc3ccc(C4CCN(c5ccc(OC(C)C)cc5)CC4)cc3F)c(C)nc2c1", 82],
  ["CCCCOc1ccc(N2CCC(c3ccc(CNC(=O)c4c(CC)nc5ccc(Cl)cn45)cc3F)CC2)cc1.Cl", 69],
  ["Cc1ccn2c(C(=O)NCc3ccc(C4CCN(c5ccc(OC(F)(F)F)cc5)CC4)c(F)c3)c(C)nc2c1", 75]
]}

Query compound follows.
### Prompt MS_h_% (remaining amount of compound after reaction, 0 minute = 100%) for Cc1ccn2c(C(=O)NCc3ccc(N4CCN(c5ccc(OC(F)(F)F)cc5)CC4)c(F)c3)c(C)nc2c1 ?
### Response 71.4

====

PROTOCOL TEXT: Metabolic stability test in pooled human liver microsomes
Format: in vitro ADME
RUN CONDITIONS: human liver microsomes 0.5 mg protein/mL, 1 mmol/L NADPH, 37° C., 30 minutes
OBSERVED PROPERTY: MS_h_% (remaining amount of compound after reaction, 0 minute = 100%)
Answers are plain numbers, in %.

Recorded MS_h_% (remaining amount of compound after reaction, 0 minute = 100%), per entry:
{"columns": ["TEST SMILES", "RECORDED VALUE"],
 "data": [
  ["CCOc1ccc(N2CCN(c3ccc(CNC(=O)c4c(CC)nc5ccc(Cl)cn45)cc3F)C[C@@H]2C)cc1F.Cl", 65],
  ["Cc1nc2cc(F)ccn2c1C(=O)NCc1ccc(N2CCN(c3ccc(OC(F)(F)F)cc3)[C@@H](C)C2)c(F)c1", 96]
]}

Query compound follows.
### Prompt MS_h_% (remaining amount of compound after reaction, 0 minute = 100%) for CCc1nc2ccc(Cl)cn2c1C(=O)NCc1ccc(N2CCN(c3ccc(OCC(F)(F)F)nc3)[C@@H](C)C2)c(F)c1 ?
### Response 64

From: patent US20220340566A1
